- Test system: CD47
- PROTOCOL_SUMMARY: FACS analysis of expression level of CD47 on tumor cell surface
- Format: cell-based, Human
- SETUP_CONDITIONS: Toledo cells, 12 hours, 0.008 uM
REPORTED_METRIC: Mean Fluorescence Intensity (MFI) CD47
The reply should be a number, written without any unit.

Worked cases, Mean Fluorescence Intensity (MFI) CD47 given:
[[record]]
compound = "C[C@H](Nc1ncnc2nc[nH]c12)c1cc2cccc(Cl)c2c(=O)n1-c1ccccc1 [Duvelisib]"
target_or_test_system = "CD47"
measured = 8368

[[record]]
compound = "C=CC(=O)N1CCC[C@@H](n2nc(-c3ccc(Oc4ccccc4)cc3)c3c(N)ncnc32)C1 [Ibrutinib]"
target_or_test_system = "CD47"
measured = 8453

[[record]]
compound = "CC[C@H](Nc1ncnc2[nH]cnc12)c1nc2cccc(F)c2c(=O)n1-c1ccccc1 [Idelalisib]"
target_or_test_system = "CD47"
measured = 8342

[[record]]
compound = "Nc1ncn([C@@H]2O[C@H](CO)[C@@H](O)[C@H]2O)c(=O)n1 [Azacitidine]"
target_or_test_system = "CD47"
measured = 8204

[[record]]
compound = "Cn1c(CCCC(=O)O)nc2cc(N(CCCl)CCCl)ccc21 [Bendamustine]"
target_or_test_system = "CD47"
measured = 9132


So what's the measured Mean Fluorescence Intensity (MFI) CD47 for this one? Nc1cccc2c1CN(C1CCC(=O)NC1=O)C2=O (centres unmarked) [Lenalidomide]
8706

Next compound: COc1c(OCCCN2CCOCC2)ccc2c1N=C(NC(=O)c1cnc(N)nc1)N1CCN=C21 [Copanlisib]
8024

Next compound: CC1(C)CCC(CN2CCN(c3ccc(C(=O)NS(=O)(=O)c4ccc(NCC5CCOCC5)c([N+](=O)[O-])c4)c(Oc4cnc5[nH]ccc5c4)c3)CC2)=C(c2ccc(Cl)cc2)C1 [Venetoclax]
7873

====

- System: Toledo Cells
- PROTOCOL_SUMMARY: FACS-based phagocytosis assay, macrophages cocultured with Toledo cells
- Format: cell-based, Human
- SETUP_CONDITIONS: Cpd 0.04 uM, T4J = 0.1 ug/ml, R = 0
REPORTED_METRIC: macrophage phagocytosis (untreated = 1.00)
The reply should be a number, written without any unit.

So what's the measured macrophage phagocytosis (untreated = 1.00) for this one? Nc1cccc2c1CN(C1CCC(=O)NC1=O)C2=O (stereo not shown) [Lenalidomide]
2.56

====

- Test system: Toledo Cells
- PROTOCOL_SUMMARY: FACS-based phagocytosis assay, macrophages cocultured with Toledo cells
- Type: cell-based, Human
- SETUP_CONDITIONS: Cpd 0.0016 uM, T4J = 0.1 ug/ml, R = 0
macrophage phagocytosis (untreated = 1.00) for assorted compounds
The reply should be a number, written without any unit.

Worked cases, macrophage phagocytosis (untreated = 1.00) given:
[[record]]
compound = "CC1(C)CCC(CN2CCN(c3ccc(C(=O)NS(=O)(=O)c4ccc(NCC5CCOCC5)c([N+](=O)[O-])c4)c(Oc4cnc5[nH]ccc5c4)c3)CC2)=C(c2ccc(Cl)cc2)C1 [Venetoclax]"
target_or_test_system = "Toledo Cells"
measured = 2.62

[[record]]
compound = "Nc1ncn([C@@H]2O[C@H](CO)[C@@H](O)[C@H]2O)c(=O)n1 [Azacitidine]"
target_or_test_system = "Toledo Cells"
measured = 2.66


So what's the measured macrophage phagocytosis (untreated = 1.00) for this one? Cn1c(CCCC(=O)O)nc2cc(N(CCCl)CCCl)ccc21 [Bendamustine]
2.53

Next compound: Nc1cccc2c1CN(C1CCC(=O)NC1=O)C2=O (stereo not shown) [Lenalidomide]
2.48
